From: patent US7138361B2

Kindly supply the reported Plant response rating, Cocklebur values for the records listed here.
- System: cocklebur (Xanthium strumarium)
- assayExplanation: Test C postemergence
- Type: in vivo
- experimentalParameters: Rate 125 g/ha, scale 0 to 100, 0 no effect, 100 complete control
Please state the value as a number alone, without comment.

Input line: Plant response rating, Cocklebur lookup needed for CC(C)(C)c1ccn(C2SCN(c3cccc(OC(F)F)c3)C2=O)n1 (stereo not shown) , thanks.
Output line: 0

Input line: Which value of Plant response rating, Cocklebur has been reported for CCC(C)c1ccn(C2SCN(c3cccc(OC(F)(F)F)c3)C2=O)n1 (stereo not shown) in the records?
Output line: 0

Input line: Name the recorded Plant response rating, Cocklebur for CCC(CC)c1ccn(C2SCN(c3cccc(C(F)(F)F)c3)C2=O)n1 (stereo not shown) .
Output line: 60

Input line: I am curious: what Plant response rating, Cocklebur value has been reported for CCC(C)c1ccn(C2CCN(c3ccc(C)c(OC)c3)C2=O)n1 (stereo not shown) ?
Output line: 30

Input line: Quick one: Plant response rating, Cocklebur for COc1cc(N2CCC(n3ccc(C(C)C)n3)C2=O)ccc1C (stereo not shown) ?
Output line: 70

Input line: Report Plant response rating, Cocklebur for CCC(CC)c1ccn(C2CCN(c3ccc(C)c(OC)c3)C2=O)n1 (stereo not shown) please.
Output line: 20

Input line: So what does the record say about Plant response rating, Cocklebur for CC(C)(C)c1ccn(C2SCN(c3cccc(OC(F)(F)F)c3)C2=O)n1 (stereo not shown) ?
Output line: 30

* * *

- Tested on: rice (Oryza saliva)
- assayExplanation: Test C flooded paddy test
- Format: in vivo
- experimentalParameters: flooded paddy test, Rate 62 g/ha; scale 0 to 100 (0 no effect, 100 complete control)
Exercise: state measured Plant response rating, Rice for each of the compounds provided.
Write the value as a bare number.

Input line: Form: Entry = CCOc1cccc(N2CCC(n3ccc(C(C)C)n3)C2=O)c1 (stereo not drawn) | System = rice (Oryza saliva) | Plant response rating, Rice = ____
Output line: 0

Input line: Request: Plant response rating, Rice, test system rice (Oryza saliva), entry Cc1ccn(C2SCN(c3cccc(C(F)(F)F)c3)C2=O)n1 (stereo not drawn)
Output line: 0

Input line: Lab request: please report Plant response rating, Rice under test system rice (Oryza saliva) for CC(C)c1ccn(C2SCN(c3cccc(OC(F)(F)F)c3)C2=O)n1 (stereo not drawn)
Output line: 30

Input line: Which Plant response rating, Rice is reported with rice (Oryza saliva) for this entry: CC(C)(C)c1ccn(C2CCN(c3cccc(OC(F)(F)F)c3)C2=O)n1 (stereo not drawn) ?
Output line: 20

Input line: Which measured Plant response rating, Rice belongs to CC(C)c1ccn(C2SCN(c3cccc(C(F)(F)F)c3)C2=O)n1 (stereo not drawn) , tested on rice (Oryza saliva)?
Output line: 20

Input line: Please provide the recorded Plant response rating, Rice for CC(C)(C)c1ccn(C2CCN(c3cccc(SC(F)(F)F)c3)C2=O)n1 (stereo not drawn) , tested on rice (Oryza saliva).
Output line: 0

Input line: Form field - read-out: Plant response rating, Rice; system: rice (Oryza saliva); submitted item: COc1cc(N2CCC(n3ccc(C(C)C)n3)C2=O)ccc1Cl (stereo not drawn)
Output line: 0

Input line: Reported Plant response rating, Rice for rice (Oryza saliva), given CCC(C)Oc1ccn(C2CCN(c3cccc(C(F)(F)F)c3)C2=O)n1 (stereo not drawn) ?
Output line: 0

Input line: Recorded Plant response rating, Rice for CCCOc1cc(N2CCC(n3ccc(C(C)(C)C)n3)C2=O)ccc1C (stereo not drawn) with rice (Oryza saliva), please?
Output line: 0

* * *

- System: barnyardgrass (Echinochloa crus-galli)
- assayExplanation: Test B postemergence
- Format: in vivo
- experimentalParameters: Rate 500 g/ha, scale 0 to 100, 0 is no effect, 100 is complete control, 13 to 15 days
parameterMeasured: Plant response rating, Barnyardgrass
Provide a numeric answer; units are not to be included.

Input line: Record request: Plant response rating, Barnyardgrass value, item Cc1cc(N2CCC(n3ccc(C(C)(C)C)n3)C2=O)ccc1Cl (stereo not drawn)
Output line: 0

Input line: Given COc1cc(N2CCC(n3ccc(C(C)C)n3)C2=O)ccc1Cl (stereo not drawn) , state its recorded Plant response rating, Barnyardgrass.
Output line: 60

Input line: # lookup: Plant response rating, Barnyardgrass of O=C1C(n2ccc(C3CC3)n2)SCN1c1cccc(C(F)(F)F)c1 (stereo not drawn)
Output line: 80

Input line: Please report the recorded Plant response rating, Barnyardgrass for CCCC(C)c1ccn(C2OCN(c3cccc(C(F)(F)F)c3)C2=O)n1 (stereo not drawn) .
Output line: 80

Input line: Using the record for CCC(CC)c1ccn(C2SCN(c3cccc(C(F)(F)F)c3)C2=O)n1 (stereo not drawn) , report its Plant response rating, Barnyardgrass.
Output line: 100

Input line: Quick one: Plant response rating, Barnyardgrass of CC(C)(C)c1nn(C2CCN(c3cccc(C(F)(F)F)c3)C2=O)cc1Cl (stereo not drawn) ?
Output line: 0

Input line: Quick check: Plant response rating, Barnyardgrass of O=C1C(n2cccn2)CCN1c1cccc(C(F)(F)F)c1 (stereo not drawn) ?
Output line: 0

Input line: Endpoint output: Plant response rating, Barnyardgrass of COC(=O)c1cccc(N2CCC(n3ccc(C(C)(C)C)n3)C2=O)c1 (stereo not drawn) . Value?
Output line: 90

Input line: What value of Plant response rating, Barnyardgrass has been reported for the following molecule? CC(C)(C)c1ccn(C2SCN(c3cccc(C(F)(F)F)c3)C2=O)n1 (stereo not drawn)
Output line: 50

* * *

Could you please report measured Plant response rating, Nutsedge for the items listed next?
- Test system: yellow nutsedge (Cyperus esculentus)
- assayExplanation: Test C postemergence
- Type: in vivo
- experimentalParameters: Rate 500 g/ha, scale 0 to 100 (0 no effect, 100 complete control)
Respond with the number and no other words.

Input line: Returns the measured Plant response rating, Nutsedge for the input compound. Input: CCC(C)c1ccn(C2CCN(c3ccc(Br)c(OC)c3)C2=O)n1 (stereo not drawn) [Compound 142]
Output line: 20

Input line: Requested field: Plant response rating, Nutsedge. Item: CCC(C)c1ccn(C2CCN(c3ccc(C)c(OC)c3)C2=O)n1 (stereo not drawn) [Compound 80]
Output line: 20

Input line: GET /values?readout=Plant response rating, Nutsedge&item= COc1cc(N2CCC(n3ccc(C(C)(C)C)n3)C2=O)ccc1Br (stereo not drawn) [Compound 141]
Output line: 0

Input line: Recorded Plant response rating, Nutsedge of COc1cc(N2CCC(n3ccc(C(C)C)n3)C2=O)ccc1Cl (stereo not drawn) [Compound 120] , please.
Output line: 50

Input line: Return reported Plant response rating, Nutsedge; argument: COc1cc(N2CCC(n3ccc(C(C)C)n3)C2=O)ccc1C (stereo not drawn) [Compound 85]
Output line: 90

Input line: So what does the record say about Plant response rating, Nutsedge for CCC(CC)c1ccn(C2SCN(c3cccc(C(F)(F)F)c3)C2=O)n1 (stereo not drawn) [Compound 25] ?
Output line: 0

* * *

Hi there, I'd appreciate the recorded Plant response rating (0 to 100), Nutsedge for every entry that follows.
- Test system: yellow nutsedge (Cyperus esculentus)
- assayExplanation: Test C preemergence
- Format: in vivo
- experimentalParameters: preemergence, Rate 250 g/ha, visual evaluation after 12 to 14 days
Please reply with the value in numeric form only.

Input line: Entry CCC(CC)c1ccn(C2SCN(c3cccc(C(F)(F)F)c3)C2=O)n1 (centres unmarked) [Compound 25] : reported Plant response rating (0 to 100), Nutsedge = ?
Output line: 40

Input line: Which Plant response rating (0 to 100), Nutsedge value belongs to CC(C)(C)c1ccn(C2CCN(c3cccc(Br)c3)C2=O)n1 (centres unmarked) [Compound 33] ?
Output line: 0

Input line: Record request: Plant response rating (0 to 100), Nutsedge value, item O=C1C(n2ccc(C3CC3)n2)OCN1c1cccc(C(F)(F)F)c1 (centres unmarked) [Compound 28]
Output line: 50

Input line: Returns the measured Plant response rating (0 to 100), Nutsedge for the input compound. Input: CC(C)(C)c1ccn(C2CCN(c3cccc(C(F)(F)F)c3)C2=S)n1 (centres unmarked) [Compound 22]
Output line: 0

Input line: For the compound shown here, O=C1C(n2ccc(C3CC3)n2)CCN1c1cccc(C(F)(F)F)c1 (centres unmarked) [Compound 8] , give the reported Plant response rating (0 to 100), Nutsedge.
Output line: 0

Input line: Consider the compound shown here: O=C1C(n2ccc(C3CCC3)n2)SCN1c1cccc(OC(F)F)c1 (centres unmarked) [Compound 45] What is its recorded Plant response rating (0 to 100), Nutsedge?
Output line: 60

Input line: Which Plant response rating (0 to 100), Nutsedge reading was recorded for the compound CC(C)(C)c1ccn(C2SCN(c3cccc(OC(F)(F)F)c3)C2=O)n1 (centres unmarked) [Compound 30] ?
Output line: 40

Input line: Look at this compound and give its reported Plant response rating (0 to 100), Nutsedge. CC(C)(C)c1ccn(C2CCN(c3ccc(Cl)c(Cl)c3)C2=O)n1 (centres unmarked) [Compound 34]
Output line: 0

* * *

- Tested on: goosegrass (Eleusine indica)
- assayExplanation: Test C postemergence
- Assay type: in vivo
- experimentalParameters: Rate 250 g/ha, scale 0 to 100 (0 no effect, 100 complete control)
Assign yes (1) whenever Plant response rating, Goosegrass does not fall below 30; assign no (0) whenever it does.

Input line: I'd appreciate it if you could say whether COc1cc(N2CCC(n3ccc(C(C)C)n3)C2=O)ccc1C (centres unmarked) has Plant response rating, Goosegrass at least equal to 30.
Output line: no (0)

Input line: Hi team, for CCC(C)c1ccn(C2CCN(c3ccc(Br)c(OC)c3)C2=O)n1 (centres unmarked) , is the recorded Plant response rating, Goosegrass at or above 30?
Output line: yes (1)

Input line: Check if Plant response rating, Goosegrass >= 30 (inclusive). Item: Cc1ccc(N2CCC(n3ccc(C(C)(C)C)n3)C2=O)cc1I (centres unmarked)
Output line: no (0)

Input line: For this compound, is measured Plant response rating, Goosegrass 30 or higher? Cc1ccc(N2CCC(n3ccc(C(C)(C)C)n3)C2=O)cc1OCCCl (centres unmarked)
Output line: no (0)
